Every entry's value here was drawn from patent US6168954A.

- PROTOCOL DETAILS: GST conjugation activity with ethacrynic acid (HPLC)
- Type: biochemical
- CONDITION DESCRIPTION: 0.4 mM electrophilic substrate, 4 mM glutathione, 0.1 M MOPS pH 7.0, corrected for uncatalyzed reaction
- Method: The GST enzymes, expressed and purified as described in Example 5 were screened for their ability to metabolize a variety of substrates. […] For each enzyme, the conjugation reaction with each electrophilic substrate was performed by incubating 0.3 to 30 μg enzyme in 0.1 M MOPS (pH 7.0) containing 0.4 mM of the electrophilic substrate. […] Quantitation of metabolites were based on an assumption that the extinction coefficient of the conjugate was identical to that of the electrophilic substrate. […]
MEASUREMENT TYPE: Activity of soybean GST enzyme, Ethacrynic Acid (nmol/min/mg)

{"columns": ["MOLECULE", "RESULT UNIT", "REPORTED MEASUREMENT"],
 "data": [
  ["se3.03b09: soybean type III GST encoded by cDNA insert in clone se3.03b09 (protein) MSKSEDLKLLGGWFSPFALRVQIALNLKGLEYEVVEETLNPKSDLLLKSNPVHKKIPVFFHGDKVICESAIIVEYIDEAWTNVPSILPQNAYDRANARFWFAYIDEKWFTSLRSVLVAEDDEAKKPHFEQAEEGLERLEEVFNKYSEGKAYFGGDSIGFIDIGFGSFLSWMRVIEEMSGRKLLDEKKHPGLTQWAETFAADPAVKGILPETDKLVEFAKILQLKWTAAAAAAAK", "nmol/min/mg", 1],
  ["ses8w.pk0028.c6: soybean type III GST encoded by cDNA insert in clone ses8w.pk0028.c6 (protein) MAANQEDVKLLGATGSPFVCRVQIALKLKGVQYKFLEENLRNKSELLLKSNPVHKKVPVFIHNEKPIAESLVIVEYIDETWKNNPILPSDPYQRALARFWSKFIDDKVVGAAWKYIYTVDEKEREKNVEESYEALQFLENELKDKKFFGGEEIGLVDIAAVFIAFWIPIIQEVLGLKLFTSEKFPKLYKWSQEFINHPVVKQVLPPRDQLFAFYKACHESLSASK", "nmol/min/mg", 17]
]}
